Hello, the source for this data is the supplement of paper PMC11451515, in case you need it.

Test system: NOMO1
Test: AUC of viability dose-response curve (% viability x log10 dose units); higher = less sensitive
Settings: RPMI 5 mM glucose + 10% dialyzed FBS; 48 h
Assignment: determine reported AUC of viability dose-response curve for the given molecules.
Numbers only.

The following molecules have reported results that may help.
INSERT INTO assay_data (record_smiles, value_kind, endpoint_result) VALUES
  ('Cc1ccc(Nc2cc(-c3cccc(N4C(=O)c5ccccc5C4=O)c3)ncn2)cc1N[S+](C)(=O)[O-]', 'AUC of viability dose-response curve', 469),
  ('Oc1cc(-c2nc(-c3ccccc3)[nH]c2-c2ccncc2)ccc1Cl', 'AUC of viability dose-response curve', 420),
  ('COc1cc(C(=O)NC2CCN(C)CC2)ccc1Nc1ncc2c(n1)N(C1CCCC1)CCC(=O)N2C(C)C', 'AUC of viability dose-response curve', 457),
  ('CC1(C)CC\C2=C(/O1)C3=C(C=CC=C3)C(=O)C2=O', 'AUC of viability dose-response curve', 451);

[Q] Recorded AUC of viability dose-response curve of `Cc1c(CN2CCN([S+](C)(=O)[O-])CC2)sc2c(N3CCOCC3)nc(-c3cnc(N)nc3)nc12` , please.
[A] 316

---

Test system: P12-Ichikawa
Assay: cell viability relative to DMSO control; higher = less cytotoxic
Settings: HPLM + 10% dialyzed FBS; 48 h; 0.569 µM
Assignment: determine reported cell viability for the given molecules.
Answers are plain numbers, in %.

INSERT INTO measurements (record_smiles, endpoint_result) VALUES
  ('O=C(O)c1cc(O)c2c(c1)C(=O)c1cccc(O)c1C2=O', 112);

Could I get cell viability for every one of these entries?
1. CCOC(=O)N1CCN(/[N+]([O-])=N/Oc2cc(O/N=[N+](\[O-])N3CCN(C(=O)OCC)CC3)c([N+](=O)[O-])cc2[N+](=O)[O-])CC1
2. Cc1cn2cc(C(=O)N(C)CCO)cc(N[C@@H]3CCOc4cccc(C)c43)c2n1
3. OC(=O)\C1=C\N(C2CC2)C3=CC(=C(F)C=C3C1=O)N4CCNCC4

[A]
131
118
115

---

Tested on: SEM cells
Test: cell viability relative to DMSO control; higher = less cytotoxic
Settings: RPMI 5 mM glucose + 10% dialyzed FBS; 48 h; 46.1 µM
Classification by cell viability follows these ranges: I: < 40%; II: ≥ 40% and < 80%; III: ≥ 80%

Completed entries (count: 5):
INSERT INTO measurements (compound, classification) VALUES
  ('Nc1n[nH]c2nnc(-c3c(-c4ccccc4)nn4ccccc34)cc12', 'I'),
  ('CC1(COc2ccc3c(c2)ncn3-c2ccc3cccc(N4CCC(N)CC4)c3n2)COC1', 'I'),
  ('CCNC(=O)Nc1ccc(Oc2ncnc(N)c2/C=N/OC)cc1Cl', 'II'),
  ('Clc2cccc(Cl)c2\N=C1/NCCN1', 'III'),
  ('CCC(C)CCCCC(=O)N[C@@H](CCN)C(=O)NC(C(=O)N[C@H](CCN)C(=O)N[C@@H]1CCNC(=O)C([C@@H](C)O)NC(=O)[C@@H](CCN)NC(=O)[C@@H](CCN)NC(=O)[C@@H](CC(C)C)NC(=O)[C@H](Cc2ccccc2)NC(=O)[C@H](CCN)NC1=O)[C@@H](C)O (stereo partly specified)', 'III');

[Q] Input `Cc1nc(-c2ccc(OCC(C)C)c(C#N)c2)sc1C(=O)O` ; output its category
[A] III

[Q] Input `Cc1ccc([C@@H]2O[C@H](CO)[C@@H](O)[C@H](O)[C@H]2O)cc1Cc1ccc(-c2ccc(F)cc2)s1` ; output its category
[A] II

[Q] Input `OC1=CC=C(C=C1)C/2=C/C3=C(OC2)C=C(O)C=C3` ; output its category
[A] I

[Q] Input `CC[C@H]1OC(=O)[C@H](C)[C@@H](O[C@H]2C[C@@](C)(OC)[C@@H](O)[C@H](C)O2)[C@H](C)[C@@H](O[C@@H]2O[C@H](C)C[C@H](N(C)C)[C@H]2O)[C@](C)(OC)C[C@@H](C)C(=O)[C@H](C)[C@@H](O)[C@]1(C)O` ; output its category
[A] III

[Q] Input `C[C@@H]1[C@H]\2[C@H](O)[C@H]3[C@H](N(C)C)\C(=C(C(N)=O)/C(=O)[C@@]3(O)\C(=C2C(=O)C4=C(O)C=CC=C14)O)O` ; output its category
[A] III

[Q] Input CC(C(C)N1CC(=O)NC(=O)C1)N1CC(=O)NC(=O)C1 (stereo unspecified) ; output its category
[A] I

[Q] Input `Cc1cc(Nc2ncc3c(n2)N(C)C(=O)N(c2cc(NC(=O)c4cccc(C(F)(F)F)c4)ccc2C)C3)n(C)n1` ; output its category
[A] I

[Q] Input C[C@]12CCC3c4ccc(O)cc4CCC3C1CCC2=O (stereo partly specified) ; output its category
[A] II

[Q] Input `Cc1cc(Nc2cc(N3CCN(C)CC3)nc(/C=C/c3ccccc3)n2)n[nH]1` ; output its category
[A] I

[Q] Input `CC(=O)OC[C@@H]1O[C@H]([C@H](OC(C)=O)[C@@H]1OC(C)=O)N2\C=C/C(=O)NC2=O` ; output its category
[A] III
